Origin of measurements: patent US8362064B2

protocol: In vivo pharmacokinetic study, plasma AUC after oral and i.v. dosing
Set-up: species or system male Wistar rats
recorded.conditions: rat, plasma; male Wistar rats; derived from 5 mg/kg oral dose PK data; read-out: Plasma AUC following 1 mg/kg oral dose
Procedure: The suitability of the compounds exemplified in Examples 7, 10 and 15 above for inhalation for the treatment of lung diseases was examined by standard in vivo pharmacokinetic studies using male Wistar rats as known in the art. […] Concentrations of Example 7, Example 10 and Example 15 in the various plasma samples were determined using standard analytical procedures. […]
measured.metric: AUC

IN: Give its AUC value. Item: O=S(=O)(Nc1ccc(Oc2cnn(-c3ccc(F)c(Cl)c3)c2)c(Cl)c1)c1ccc(Cl)cc1Cl [Example 7]
OUT: 40 ng·h/mL

IN: Follow-up item: Cc1ccc(S(=O)(=O)Nc2ccc(Oc3cnn(-c4ccc(C)cc4C)c3)c(Cl)c2)cc1 [Example 15]
OUT: 1 ng·h/mL
